- MEASUREMENT PROTOCOL: yeast display, Sf9 membrane polyspecificity reagent, FACS + sequencing; frameworks hold sequencing errors
MEASURED QUANTITY: polyreactivity (PSR sort gate)

QVQLVESGGGLVQAGGSLRLSCAASGITFSYNAMGWSRQAPGKERELVAAISSNSDSTYYADSVKGRFTISRDNAKNTVYLQMNSLKPEDTAVYYCAADTPDAPDYSGFYYWGQGSQVTVSS	low polyreactivity
QVQLVESGGGLVQAGGSLRISCAASGRIFYYNVMGWYRQAPGKEWELVASISYSSTRTYYADSVKGRFTISRDNGMNTFYLQMNSLKPEDTAVYYCAVDGYSYYSMDYWGQGTQVTVSS	low polyreactivity

* * *

- MEASUREMENT PROTOCOL: yeast display, Sf9 membrane polyspecificity reagent, FACS + sequencing; frameworks hold sequencing errors
MEASURED QUANTITY: polyreactivity (PSR sort gate)

QVQLVESGGGLVQAGGSLRLSCAASGSTLYAYVMGWYRQAPGKERELVATISWSGGRTYYADSVKGRFTISRDNAKNTVYLQMNSLKPEDTAVYYCNARRRYSYVSRKFDYWGQGTQVTVSS	high polyreactivity
QVQLVESGGGLVQAGGSLRLSCAASGLTFGYNAMGWYRQAPGKERELVAAISSNGGRTYYADSVKGRFTISRDNAKNTVYLQMNSLKPEDTAVYYCNVVYSRSRPYDYWGQGTQVTVSS	high polyreactivity

* * *

- MEASUREMENT PROTOCOL: yeast display, Sf9 membrane polyspecificity reagent, FACS + sequencing; frameworks hold sequencing errors
MEASURED QUANTITY: polyreactivity (PSR sort gate)

QVQLVESGGGLVQAGGSLRLSCAASGFTFYTYVMGWYRQAPGKERELVAAITSGVSTNYADSVKGRFTISRDNAKNTVYLQMNSLKPEDTAVYYCAAGSDFQYGHDYWGQGTQVTVSS	low polyreactivity
QVQLVESGGGLVQAGGSLRLSCAASGNIFRYYVMGWYRQAPGKEREFVAAITSSGGSTYYADSVKGRFTISRDNAKNTVYLQMNSLKPEDTAVYYCAKDYWDPGWAEYDYWGQGTQVTVSS	low polyreactivity
QVQLVESGRGIVQAGGSLRLSCAASGSIFGWYAMGWYRQAPGKERELVASNSVTAGSTYYADSVKWRFTISRDNAKNTVYLLMYSLKPVYTAVYYCASDDDTADAVQLFYYWGQGTHVTVSS	low polyreactivity

* * *

- MEASUREMENT PROTOCOL: yeast display, Sf9 membrane polyspecificity reagent, FACS + sequencing; frameworks hold sequencing errors
MEASURED QUANTITY: polyreactivity (PSR sort gate)

Some solved entries appear below for comparison.
QVQLVESGGGLVQPGGSLRLSGAASGRILTYYAMGWYRQAPGKERELFAAISWRAGSTYYADSVKGRFTISRDNAKNTVYLQMNSLKPEDTAVYYCAAKPYYIPTRTYSHYNYWGQGTLVTVSS	high polyreactivity
QVQLVESGGGLVQAGGSLRLSCAASGLTFPSNAMGWYRQAPGKERELVAAISKRGGRTFYADSVKGRFTISRDNAKNTVYLQMNSLKPEDTAVYYCATPYAYPGTVQYAGYNYWGQGTQVTVSS	high polyreactivity
QVQLVESGGGLVQAGGSLRLSCAASGSIFTRYAMGWYRQAPGKERELVAAIRTSGGSTYYADSVKGRFTISRDNAKNTVYLQMNSLKPEDTAVYYCARRYYKSNFYYWGQGTQVTVSS	high polyreactivity
QVQLVESGGGLLQAGGSLRLSCAASGSIFGDNAMVWYRQAPWKERDLVATISSSDASTYYADSVKGRFTISRDNAKNTVNLQMNSLKPEDTAVYYCAKEVTAGYHVWYDYWGQGTQVTVSS	low polyreactivity

Here is another sequence to look at.
-- ask So what's the measured polyreactivity (PSR sort gate) for this one? `QVQLQESSGGLVQAGGSLRMGCAASGTIFHFHIMGWYRPAPGKEREFVAAISYGTSTYYADSVKGRFTISRDNAKNTVYLQMNSQKPEDTAVYYCAVYDYLEVYCWYWGQGTQVNVSS`
-- reply low polyreactivity
